Target: histamine H4 receptor (Homo sapiens)
Assay: In vitro histamine H4 potency in FLIPR (Ca2+ flux, HEK-293 cells coexpressing Gαqi5)
Format: cell-based
Design: expressed in transfected cells
Settings: Kb for antagonists and inverse agonists, EC50 for partial agonists
parameter: Potency (nM)

Some solved entries appear below for comparison.
CC(=O)Nc1cccc2c1-c1nc(N)nc(N3CCNCC3)c1CCC2; 1096
NCCC(=O)Nc1nc2c(c(N3CCNCC3)n1)CCCc1ccccc1-2; 135

1. Nc1nc2c(c(N3CCNCC3)n1)CCOc1cc(I)ccc1-2
2. Nc1nc2c(c(N3CC[C@@H](N)C3)n1)CCCCc1ccccc1-2
Query: // compare: 1 vs 2 , metric Potency, want the smaller # reply format: chosen label
Result: 2

1. CN1CCC2CN(c3nc(N)nc4c3CCCc3ccccc3-4)CC2C1 (stereo not drawn)
2. CC1Cc2c(nc(N)nc2N2CCNCC2)-c2ccccc21 (stereo not drawn)
Query: Returns: the argument ( 1 or 2 ) having the larger Potency. # reply format: chosen label
Result: 2

* * *

Target: histamine H4 receptor (Homo sapiens, UniProt Q9H3N8)
Assay: In vitro histamine H4 potency in FLIPR (Ca2+ flux, HEK-293 cells coexpressing Gαqi5)
Format: cell-based
Design: expressed in transfected cells
Conditions: Kb for antagonists and inverse agonists, EC50 for partial agonists
parameter: Potency (nM)

Some solved entries appear below for comparison.
CN1[C@@H]2CC[C@H]1CC(Nc1nc(N)nc3c1CCCc1ccccc1-3)C2 (stereo partly drawn); 17
CN(C)CCNc1nc2c(c(N3CCNCC3)n1)CCCc1ccccc1-2; 1413
CN1CC[C@@H]2CN(c3nc(N)nc4c3CCCc3ccccc3-4)C[C@@H]21; 209
Nc1nc2c(c(N3CC[C@H](N)C3)n1)CCCCCc1ccccc1-2; 646
CN1CCN(c2nc(N)nc3c2OCc2ccccc2-3)CC1; 50
CNC1CN(c2nc(N)nc3c2CCS(=O)(=O)c2ccccc2-3)C1; 5754
c1ccc2c(c1)CCCc1c-2nc(NCCc2c[nH]cn2)nc1N1CC2CCCNC2C1 (stereo not drawn); 933

A. CNc1nc2c(c(N3CCNCC3)n1)CCCc1ccccc1-2
B. CN[C@@H]1CCN(c2nc(N)nc3c2CCCc2ccccc2-3)C1
Query: Returns: the argument ( A or B ) having the larger Potency. # reply format: chosen label
Result: A
(A: 1622 nM, B: 6.6 nM)

* * *

Target: histamine H4 receptor (Homo sapiens)
Assay: In vitro histamine H4 potency in FLIPR (Ca2+ flux, HEK-293 cells coexpressing Gαqi5)
Format: cell-based
Parameters: expressed in transfected cells
Conditions: Kb for antagonists and inverse agonists, EC50 for partial agonists
parameter: Potency (nM)

Some solved entries appear below for comparison.
CNC1CN(c2nc(N)nc3c2COc2ccccc2-3)C1 [Example 8]; 33
Nc1nc2c(c(N3CC[C@H](N)C3)n1)CCCCc1ccccc1-2 [Example 56]; 115
Cc1cc(C)c2c(c1)-c1nc(N)nc(N3CCNCC3)c1CCC2 [Example 126]; 2754
CN1CCN(c2nc(N)nc3c2CCOc2ccccc2-3)CC1 [Example 29]; 39
Nc1nc2c(c(N3CCCNCCC3)n1)CCCc1ccccc1-2 [Example 61]; 8.7

a. Nc1nc2c(c(N3CCCNCC3)n1)CCCc1ccccc1-2 [Example 116]
b. CN[C@@H]1CCN(c2nc(N)nc3c2CCOc2ccc(OC)cc2-3)C1 [Example 47]
c. Nc1nc2c(c(N3CC[C@@H]4CNC[C@@H]43)n1)CCCCc1ccccc1-2 [Example 58]
Query: Your job: order these 3 records by Potency, ascending. Rank the items, then write their labels in that order.
Result: a, c, b

1. CN[C@@H]1CCN(c2nc(N)nc3c2CCOc2ccc(C)cc2-3)C1 [Example 46]
2. Nc1nc2c(c(N3CC4(CCCCN4)C3)n1)CCCc1ccccc1-2 [Example 78]
Query: Returns: the argument ( 1 or 2 ) having the larger Potency. # reply format: chosen label
Result: 2
(2: 891 nM, 1: 100 nM)

a. Nc1nc2c(c(N3CCC4(CCNC4)CC3)n1)CCCc1ccccc1-2 [Example 60]
b. CN(C)[C@@H]1CCN(c2nc(N)nc3c2CCCc2ccccc2-3)C1 [Example 76]
Query: // compare: a vs b , metric Potency, want the smaller # reply format: chosen label
Result: b
(b: 55 nM, a: 724 nM)

A. CN1CC[C@H](Oc2nc(N)nc3c2CCCc2ccccc2-3)C1 [Example 71]
B. CN[C@@H]1CCN(c2nc(N)nc3c2CCOc2c(Cl)cccc2-3)C1 [Example 51]
C. CN[C@@H]1CCN(c2nc(N)nc3c2[S+]([O-])CCc2ccccc2-3)C1 (stereo partly shown) [Example 112]
D. Nc1nc2c(c(N3CCNCC3)n1)COc1ccccc1-2 [Example 10]
Query: hey, can you rank those compounds up there by Potency? biggest number first please Rank the items, then write their labels in that order.
Result: C, A, B, D
(C: 2455 nM, A: 263 nM, B: 41 nM, D: 10 nM)

* * *

Target: histamine H4 receptor (Homo sapiens, UniProt Q9H3N8)
Test: In vitro histamine H4 potency in FLIPR (Ca2+ flux, HEK-293 cells coexpressing Gαqi5)
Assay type: cell-based
Set-up: expressed in transfected cells
Conditions: Kb for antagonists and inverse agonists, EC50 for partial agonists
parameter: Potency (µM)

CN1CC2CC(C1)N(c1nc(N)nc3c1CCCc1ccccc1-3)C2 (stereo not shown); 0.891

P. Nc1nc2c(c(N3CCN4CCCC4C3)n1)CCCc1ccccc1-2 (stereo not shown)
Q. CNC1CN(c2nc(N)nc3c2CCOc2ccccc2-3)C1
R. Nc1nc(NC[C@H]2CCN2)c2c(n1)-c1ccccc1CCC2
S. CNC1CN(c2nc(N)nc3c2CC(C)c2ccccc2-3)C1 (stereo not shown)
T. Nc1nc2c(c(N3CC4CCCNC4C3)n1)CCOc1cc(-c3ccccc3)ccc1-2 (stereo not shown)
Query: hey, can you rank those molecules up there by Potency? biggest number first please Rank the items, then write their labels in that order.
Result: R, P, T, S, Q
(R: 1.549 µM, P: 0.178 µM, T: 0.083 µM, S: 0.044 µM, Q: 0.0087 µM)

A. Nc1nc2c(c(N3CCNCCNCC3)n1)CCCc1ccccc1-2
B. Nc1nc(NC2CCCC3CNCC32)c2c(n1)-c1ccccc1CCC2 (stereo not shown)
Query: Returns: the argument ( A or B ) having the larger Potency. # reply format: chosen label
Result: B
(B: 1.288 µM, A: 0.0091 µM)

I. CN1CCN(c2nc(N)nc3c2CCCc2ccccc2-3)CC1
II. Nc1nc2c(c(N3CC[C@@H](N)C3)n1)CCSc1ccccc1-2
III. c1cncc(CNc2nc3c(c(N4CC5CCCNC5C4)n2)CCCc2ccccc2-3)c1 (stereo not shown)
IV. CC1CCN(c2nc(N)nc3c2CCCc2ccccc2-3)CCN1 (stereo not shown)
V. Nc1nc2c(c(N3CCNCC3)n1)CCc1ccccc1-2
Query: hey, can you rank those molecules up there by Potency? biggest number first please Rank the items, then write their labels in that order.
Result: III, II, IV, V, I
(III: 2.57 µM, II: 0.891 µM, IV: 0.069 µM, V: 0.024 µM, I: 0.0098 µM)

* * *

Target: histamine H4 receptor (Homo sapiens)
Experiment: In vitro histamine H4 potency in FLIPR (Ca2+ flux, HEK-293 cells coexpressing Gαqi5)
Format: cell-based
Parameters: expressed in transfected cells
Settings: Kb for antagonists and inverse agonists, EC50 for partial agonists
From the text: There are many methods available to show the effectiveness of compounds as histamine H4 receptor ligands. Histamine H4 receptors from mammalian species have been cloned. […] In the case of partial agonist or agonist ligands, addition of compound to the cells leads to the increase in intracellular Ca^+2 which is detected by FLIPR (Fluorescence Imaging Plate Reader; Molecular Devices, Sunnyvale, Calif.) technology. […]
parameter: Potency (nM)

Some solved entries appear below for comparison.
Nc1nc2c(c(N3CC[C@@H](N)C3)n1)CCCCCc1ccccc1-2; 148
CN[C@@H]1CCN(c2nc(N)nc3c2CCOc2cc(I)ccc2-3)C1; 120

P. Nc1nc2c(c(N3CC4CCCNC4C3)n1)CCSc1ccccc1-2 (centres unmarked)
Q. COC(=O)c1nc2c(c(N3CC4CCCNC4C3)n1)CCCc1ccccc1-2 (centres unmarked)
R. CN1CCC(Nc2nc(N)nc3c2CCCc2ccccc2-3)CC1
S. CN[C@@H]1CCN(c2nc(N)nc3c2CCOc2c(OC)cccc2-3)C1
Query: Your job: order these 4 records by Potency, ascending. Rank the items, then write their labels in that order.
Result: R, P, S, Q
(R: 13 nM, P: 19 nM, S: 100 nM, Q: 14454 nM)

I. CN[C@@H]1CCN(c2ncnc3c2CCCc2ccccc2-3)C1
II. Nc1nc2c(c(N3CC4CCCNC4C3)n1)SCCc1ccccc1-2 (centres unmarked)
Query: Returns: the argument ( I or II ) having the larger Potency. # reply format: chosen label
Result: I
(I: 1413 nM, II: 54 nM)
